Measured EC50 of individual entries
# Tested on: primary human mesenchymal stem cells (hMSCs)
# ASSAY_TEXT: Chondrogenesis screening using primary human mesenchymal stem cells
# Format: cell-based
# CONDITIONS_USED: Homo sapiens, Mesenchymal stem cells, hMSC chondrogenesis; concentration required to induce 50% levels of chondrogenesis with TGF-β3 as positive control; read-out: Conc (nM) of 50% TGF-β3 activity
Provide only the numeric value, understood in nM.

For orientation, consider the following solved cases.
- O=C(Cc1ccccc1)Nc1cncc(-c2ccc3[nH]nc(-c4nc5c(-c6cccc(F)c6)cncc5[nH]4)c3c2)c1: 100
- CCC(=O)Nc1cncc(-c2ccc3[nH]nc(-c4nc5c(-c6cccc(F)c6)cncc5[nH]4)c3c2)c1: 30
- CCCC(=O)Nc1cncc(-c2ccc3[nH]nc(-c4nc5c(-c6ccsc6)cncc5[nH]4)c3n2)c1: 20.6
- Cc1cn(-c2cncc3[nH]c(-c4n[nH]c5ccc(-c6cncc(NC(=O)C(C)(C)C)c6)nc45)nc23)cn1: 100
- Cc1cncc(NC(=O)c2n[nH]c3ccc(-c4cncc(CN5CCCCC5)c4)cc23)c1: 300

Q) Please report the recorded EC50 for c1cncc(-c2ccc3[nH]nc(-c4cc5c(-c6cccnc6)ccnc5[nH]4)c3n2)c1 .
A) 100

Q) Returns the measured EC50 for the input molecule. Input: CC(C)CC(=O)Nc1cncc(-c2cnc3[nH]nc(-c4cc5c(-c6cc(F)cc(CNS(C)(=O)=O)c6)nccc5[nH]4)c3c2)c1
A) 300

----------
Measured EC50 of individual entries
# ASSAYED_SYSTEM: CLK2 kinase (Homo sapiens, UniProt P49760)
# Sequence (P49760 whole entry): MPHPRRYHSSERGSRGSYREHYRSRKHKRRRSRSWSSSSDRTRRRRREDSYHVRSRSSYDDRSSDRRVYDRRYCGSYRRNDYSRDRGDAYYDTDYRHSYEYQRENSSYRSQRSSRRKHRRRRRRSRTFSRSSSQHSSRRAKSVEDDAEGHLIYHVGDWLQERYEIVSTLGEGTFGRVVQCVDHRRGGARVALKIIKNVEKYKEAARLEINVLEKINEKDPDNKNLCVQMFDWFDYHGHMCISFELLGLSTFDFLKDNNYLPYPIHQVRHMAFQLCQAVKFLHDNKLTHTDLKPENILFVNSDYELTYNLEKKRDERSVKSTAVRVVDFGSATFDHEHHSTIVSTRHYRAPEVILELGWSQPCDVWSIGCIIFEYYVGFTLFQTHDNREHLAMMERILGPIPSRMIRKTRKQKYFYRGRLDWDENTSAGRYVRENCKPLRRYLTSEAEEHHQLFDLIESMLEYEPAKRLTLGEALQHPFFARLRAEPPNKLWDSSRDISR
# ASSAY_TEXT: CLK2 kinase activity assay (Z-lyte FRET)
# CONDITIONS_USED: Z-lyte Ser/Thr 6 peptide, 60 μM ATP, 1 h at room temperature
The figure you give is taken to be in nM; do not add the unit.

Study these solved cases before continuing.
- c1cncc(-c2ccc3[nH]nc(-c4nc5cnccc5[nH]4)c3n2)c1: 15
- CC(C)(C)C(=O)Nc1cncc(-c2cnc3[nH]nc(-c4cc5c(-c6ccncc6)cncc5[nH]4)c3c2)c1: 4
- O=C(Nc1cncc(-c2cnc3[nH]nc(-c4nc5c(-c6cccc(F)c6)cncc5[nH]4)c3c2)c1)N1CCOCC1: 6
- O=C(Nc1nc2c(-c3cccc(F)c3)cncc2[nH]1)c1n[nH]c2ccc(-c3cccnc3)cc12: 5
- CC(C)(C)C(=O)Nc1cncc(-c2ccc3[nH]nc(-c4nc5c(-c6ccc(F)cc6)cncc5[nH]4)c3c2)c1: 17
- CC(C)Nc1cncc(-c2cnc3[nH]nc(-c4cc5c(-c6ccccc6F)ccnc5[nH]4)c3c2)c1: 20

# ---- query molecule ----
Q) // lookup EC50 | system=CLK2 kinase (Homo sapiens, UniProt P49760) | key= Cc1ccncc1-c1cnc2[nH]nc(-c3nc4c(-c5cc(F)cc(CNS(C)(=O)=O)c5)nccc4[nH]3)c2c1
A) 4

----------
pEC50: recorded values
# ASSAYED_SYSTEM: CLK2 kinase (Homo sapiens, UniProt P49760)
# ASSAY_TEXT: CLK2 kinase activity assay (Z-lyte FRET);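 further: FRET read-out as coumarin to fluorescein emission ratio, unphosphorylated peptide as 0% and phosphorylated peptide as 100% controls, duplicate reactions, non-linear regression fit of dose-response curves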
# CONDITIONS_USED: Z-lyte Ser/Thr 6 peptide, 60 μM ATP, 1 h at room temperature
Bear in mind: pEC50 is minus log10 of a mol/L concentration; give just that figure.

- CN(C)CCNc1cc(F)cc(-c2ccnc3[nH]c(-c4n[nH]c5ccc(-c6cncc(CN7CCCCC7)c6)nc45)cc23)c1: 8.40
- O=C(Nc1cc2cc(-c3cncc(NC4CCNCC4)n3)ccc2cn1)C1CCCCC1: 8.70
- COc1cncc(C(=O)Nc2c[nH]nc2C(=O)Nc2ccc3c(c2)CCN(C)C3)c1: 7.35
- CCCCC(=O)Nc1cncc(-c2cc3c(-c4cc5c(-c6cc(F)cc(CNS(C)(=O)=O)c6)nccc5[nH]4)n[nH]c3cn2)c1: 8.05
- COc1cccc(-c2nccc3[nH]c(-c4n[nH]c5ccc(-c6cccnc6)nc45)nc23)c1: 8.70
- CC(C)Oc1cncc(C(=O)Nc2c[nH]nc2C(=O)Nc2ccc(OC3CCN(C)CC3)nc2)c1: 8.22

Q) Dear colleague, I am looking for the recorded pEC50 of the following compound: NC(=O)c1n[nH]c2ccc(-c3cncc(CN4CCCCC4)c3)cc12
A) 7.92
